- assay system: Human PD-L1/PD-1 (Homo sapiens, UniProt Q9NZQ7)
- Construct: TVMV protease cleavage site (C); made in house; host or cells: HEK293T cells
- Sequence (Q9NZQ7 with tags, fused parts or gaps): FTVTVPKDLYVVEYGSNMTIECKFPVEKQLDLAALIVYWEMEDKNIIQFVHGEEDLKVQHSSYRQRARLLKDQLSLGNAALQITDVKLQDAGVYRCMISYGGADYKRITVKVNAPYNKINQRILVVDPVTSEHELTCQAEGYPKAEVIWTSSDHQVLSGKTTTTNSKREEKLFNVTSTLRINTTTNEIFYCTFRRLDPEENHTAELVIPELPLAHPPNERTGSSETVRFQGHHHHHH
- measurement protocol: HTRF Human PD-L1/PD-1 binding assay (PD-1-Ig/PD-L1-His)
- measurement parameters: PD-L1-His 10 nM, PD-1-Ig 20 nM; class symbol; read-out: HTRF Human PD-L1/PD-1 Binding Assay IC50 Range
pIC50: −log10 of the molar value. Where a SMILES comes first, the peptide text is derived from it. Bridges are numbered along the chain shown (N, C = ends). [ ]: non-standard residue; d: D form. ξ: configuration not given here. Hyp = O=C(O)[C@@H]1C[C@@H](O)CN1; NMeF = CN[C@@H](Cc1ccccc1)C(=O)O; 3Pal = N[C@@H](Cc1cccnc1)C(=O)O; NMeNle = CCCC[C@H](NC)C(=O)O; Tle = CC(C)(C)[C@H](N)C(=O)O; dNle = CCCC[C@@H](N)C(=O)O; hSer = N[C@@H](CCO)C(=O)O; NMeA = CN[C@@H](C)C(=O)O; ξC = NC(CS)C(=O)O; Sar = CNCC(=O)O
measured endpoint: pIC50

[[record]]
molecule = "CCCC[C@H]1C(=O)N(C)CC(=O)N[C@@H](CC(=O)O)C(=O)N[C@@H](C(C)(C)C)C(=O)N(C)[C@@H](Cc2ccccc2)C(=O)N[C@@H](Cc2ccc(O)cc2)C(=O)N(C)CC(=O)N[C@@H](Cc2c[nH]c3ccccc23)C(=O)N[C@@H](Cc2ccc(O)cc2)C(=O)N[C@@H](CC(C)C)C(=O)N[C@H](C(=O)NCC(N)=O)CSCC(=O)N[C@@H](Cc2ccccc2)C(=O)N(C)[C@@H](Cc2ccccc2)C(=O)N1C [Example 3211] ({CH2CO}-F[NMeF][NMeNle][Sar]D[Tle][NMeF]Y[Sar]WYLCG-NH2; thioether N-13)"
assay_system = "Human PD-L1/PD-1 (Homo sapiens, UniProt Q9NZQ7)"
reported = "7.00 to 8.00"


Task: Query pIC50 for CCCC[C@H]1C(=O)N(C)[C@@H](CCCC)C(=O)N[C@@H](CCC(=O)O)C(=O)NC(C(=O)NCC(N)=O)CSCC(=O)N[C@@H](Cc2ccc(O)cc2)C(=O)N(C)[C@@H](C)C(=O)N[C@@H](CC(N)=O)C(=O)N2CCC[C@H]2C(=O)N[C@@H](Cc2c[nH]cn2)C(=O)N[C@@H](CC(N)=O)C(=O)N2CCC[C@H]2C(=O)N[C@@H](Cc2c[nH]c3ccccc23)C(=O)N[C@@H](CCO)C(=O)N[C@@H](Cc2c[nH]c3ccccc23)C(=O)N1C (stereo partly shown) [Example 9186] ({CH2CO}-Y[NMeA]NPHNPW[hSer]W[NMeNle][NMeNle]E[ξC]G-NH2; thioether N-14)
Output: 7.00 to 8.00

Task: Query pIC50 for CCCC[C@H]1C(=O)N(C)CC(=O)N[C@@H](CC(=O)O)C(=O)N[C@@H](C(C)C)C(=O)N(C)[C@@H](Cc2ccccc2)C(=O)N[C@@H](Cc2ccc(O)cc2)C(=O)N(C)CC(=O)N[C@@H](Cc2c[nH]c3ccccc23)C(=O)N[C@@H](Cc2ccc(O)cc2)C(=O)N[C@@H](CC(C)C)C(=O)N[C@H](C(=O)NCC(N)=O)CSCC(=O)N[C@@H](Cc2cccnc2)C(=O)N(C)[C@@H](Cc2ccccc2)C(=O)N1C [Example 3243] ({CH2CO}-[3Pal][NMeF][NMeNle][Sar]DV[NMeF]Y[Sar]WYLCG-NH2; thioether N-13)
Output: 7.00 to 8.00

Task: Query pIC50 for CCCC[C@H]1NC(=O)[C@H](Cc2c[nH]c3ccccc23)NC(=O)[C@H](CO)NC(=O)[C@H](Cc2c[nH]c3ccccc23)NC(=O)[C@@H]2C[C@@H](O)CN2C(=O)[C@H](CCC(N)=O)NC(=O)[C@H](Cc2cnc[nH]2)NC(=O)[C@@H]2CCCN2C(=O)[C@H](CC(=O)O)NC(=O)[C@H](C)N(C)C(=O)[C@H](Cc2ccc(O)cc2)NC(=O)CSCC(C(=O)NCC(N)=O)NC(=O)[C@H](CCC(=O)O)NC(=O)[C@H](CCCC)N(C)C1=O (stereo partly shown) [Example 10128] ({CH2CO}-Y[NMeA]DPHQ[Hyp]WSW[dNle][NMeNle]E[ξC]G-NH2; thioether N-14)
Output: 5.00 to 6.00
